Give measured pKd for each item. Keep answers brief.
Target: T1, human beta CGRP (SEQ ID NO: 81) (human, not fully specified)
T1 construct: also called human βCGRP; hβCGRP
T1 peptide: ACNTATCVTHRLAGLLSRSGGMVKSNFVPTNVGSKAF
Experiment: SPR, 37 C, mutein captured, CGRP analyte
A value of pKd is the negative decimal logarithm of a concentration given in moles per litre.

pKd reading for lipocalin mutein SEQ ID NO: 16 (designed binder, biotinylated by NHS chemistry for capture in SPR) QDSTSDLIPAPPLSKVPLQQNFQDNQFHGKWYVVGRAGNDELREDKDPEKMEATIYELKEDKSYNVTDVGFVQKKCMYVIHTFVPGSQPGEFTLGNIKSYPGVTSGLVRVVSTNYNQHAMVFFKVVRQNRELFEITLYGRTKELTSELKENFIRFSKSLGLPENHIVFPVPIDQCIDGSAWSHPQFEK : 10.44

Value of measured pKd for the entry lipocalin mutein SEQ ID NO: 8 (designed binder, biotinylated by NHS chemistry for capture in SPR) QDSTSDLIPAPPLSKVPLQQNFQDNQFHGKWYVVGWAGNTLRREDKNPTKMQATIYELKEDKSYNVTWVYFSEKKCNYHIETSVPGSQPGEFTLGTIKSYPGETSILVRVVSTNYNQHAMVFFKGVSQNREIFEITLYGRTKELTSELKENFIRFSKSLGLPENHIVFPVPIDQCIDGSAWSHPQFEK : 9.84

Lookup result for lipocalin mutein SEQ ID NO: 7 (designed binder, biotinylated by NHS chemistry for capture in SPR) QDSTSDLIPAPPLSKVPLQQNFQDNQFHGKWYVVGWAGNTLLREDKDPIKMQATIYELKEDKSYNVTWVYFSEKRCNYHIETSVPGSQPGEFTLGTIKSYPGETSILVRVVSTNYNQHAMVFFKGVSQNREIFEITLYGRTKELTSELKENFIRFSKSLGLPENHIVFPVPIDQCIDGSAWSHPQFEK ; measured pKd: 10.44
